assay-notes: S6 kinase pathway phospho-S6 level changes – cell-based, A549, cytoblot, luminescence, serum-stimulated, primary screen (AID 1158);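 further: serum-stimulated A549 lung adenocarcinoma cells; signal is phosphorylated S6 detected by cytoblot immunostaining with HRP secondary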
assay-setup: 5 h, higher = more signal
Entries annotated with measured z-score

- compound: "CCC[C@@H]1C[C@@]1(CCC)[C@@H](NC(=O)c1cccs1)c1ccc(Cl)cc1"
  z-score: -0.392
- compound: "CCCN1C(=O)[C@@]2(Cc3ccccc3)N=C(c3ccc(OCCCO)cc3)O[C@H]2c2ccccc21"
  z-score: -0.149
- compound: "CCOC(=O)C1=CCC(c2cccc(Cl)c2)O1 (centres undefined)"
  z-score: 1.61
- compound: "COCCOC(=O)N1C(=O)[C@@]2(c3ccccc31)[C@H](c1ccc(OCCO)cc1)N1[C@H](c3ccccc3)[C@H](c3ccccc3)OC(=O)[C@H]1[C@@H]2C(=O)NC[C@H](O)c1ccccc1"
  z-score: -0.575
- compound: "COC(=O)[C@H]1N=C(c2ccc(OCCCO)cc2)O[C@H]1c1ccccc1CN=[N+]=[N-]"
  z-score: -0.221
- compound: "NC(=O)[C@@H]1[C@H]2C(=O)O[C@H](c3ccccc3)[C@H](c3ccccc3)N2[C@H](c2ccccc2OCCO)[C@@]12C(=O)Nc1ccc(C#CCCO)cc12"
  z-score: 1.02
- compound: "COc1cc(NN2C(C(O)c3ccc(I)cc3)C=CC3C(=O)N(C)C(=O)C32)cc(OC)c1OC (centres undefined)"
  z-score: 1.28
- compound: "C=C(COC)/C(=C/C[C@@H](OC(=O)c1ccncc1)c1cccc(OCCO)c1)c1cc(C(=O)OC)ccc1OC"
  z-score: -0.88
- compound: "COc1cccc(C)c1NC(=O)O[C@H]1[C@H](OC(=O)Nc2ccccc2)[C@H](OC(=O)Nc2ccccc2)[C@@H](OC)O[C@@H]1CO"
  z-score: -0.26
- compound: "COC(=O)C(CC#Cc1ccc2c(c1)[C@]1(C(=O)N2)[C@H](C(=O)N2CCc3cc(OC)c(OC)cc3C2)[C@H]2C(=O)O[C@H](c3ccccc3)[C@H](c3ccccc3)N2[C@@H]1c1ccc(OCCO)cc1)C(=O)OC"
  z-score: 0.237
- compound: "COc1ccc(C#Cc2ccc3c(c2)[C@]2(C(=O)N3)[C@H](C(=O)O)[C@H]3C(=O)O[C@H](c4ccccc4)[C@H](c4ccccc4)N3[C@@H]2c2ccc(OCCO)cc2)cc1"
  z-score: -0.0207
- compound: "Cc1ccc(S[C@]2(C(=O)NCCN3CCOCC3)CC(=O)N(C3Cc4ccccc4C3)[C@@H]2c2ccc(CO)cc2)cc1"
  z-score: -0.348
- compound: "COCCCNC(=O)[C@@H]1c2ccccc2C(=O)N(c2ccc(C)cn2)[C@H]1c1ccc(CO)cc1"
  z-score: -0.112
- compound: "COCCOC(=O)N1C(=O)[C@@]2(c3ccccc31)[C@H](c1ccccc1OCCO)N1[C@H](c3ccccc3)[C@H](c3ccccc3)OC(=O)[C@H]1[C@@H]2C(=O)N1CCc2cc(OC)c(OC)cc2C1"
  z-score: 0.0753

---

measured-target: Focal adhesion kinase 1 (Homo sapiens)
assay-notes: PTK2 protein binding on printed compound slides – biochemical, small-molecule microarray, 635/667 nm fluorescence, BSA, DTT, primary screen (AID 1130);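 further: composite of spot emission at 667 nm and signal to noise over triplicate slides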
assay-setup: 635 nm fluorescence, higher = more signal
Would you mind labelling by composite z-score? At or over 0.5 is fulfilled, under is not fulfilled.

- molecule: "COCCOC(=O)N1C(=O)[C@@]2(c3cc(C#CCC(C(=O)OC)C(=O)OC)ccc31)[C@H](C(=O)N1CCCCCCC1)[C@H]1C(=O)O[C@H](c3ccccc3)[C@H](c3ccccc3)N1[C@@H]2c1ccc(O)cc1"
  assigned-label: "fulfilled"
- molecule: "CCOC(=O)C[C@H]1[C@H](OC(=O)Cc2ccc3c(c2)OCO3)[C@@H](NC(=O)c2ccccc2)c2cc(OCCCO)ccc2N1C(=O)c1ccccc1"
  assigned-label: "not fulfilled"
- molecule: "CC(C)c1ccc(NN2C(C(O)c3cccs3)C=CC3C(=O)N(c4ccccc4)C(=O)C32)cc1 (configuration not stated)"
  assigned-label: "fulfilled"
- molecule: "O=C1NC(=O)C2C1C=CC(C(O)c1ccc3c(c1)OCO3)N2Nc1ccc(Cl)cc1Cl (configuration not stated)"
  assigned-label: "fulfilled"
- molecule: "CC(C)N1C(=O)c2ccccc2[C@](C)(C(=O)O)[C@@H]1c1ccc(CO)cc1"
  assigned-label: "not fulfilled"
- molecule: "CC(C)NC(=O)[C@@]1(Cc2ccccc2I)c2ccccc2C(=O)N(Cc2ccccc2C(F)(F)F)[C@H]1c1ccc(CO)cc1"
  assigned-label: "fulfilled"
- molecule: "Cc1ccccc1C(O)C1C=CC2C(=O)N(C)C(=O)C2N1Nc1ccc([N+](=O)[O-])cc1[N+](=O)[O-] (configuration not stated)"
  assigned-label: "fulfilled"
- molecule: "C/C=C/[C@@H](CCn1cc([C@H](O)c2ccccc2)nn1)[Si](C)(C)c1ccc(OC)cc1"
  assigned-label: "not fulfilled"
- molecule: "COCCOC(=O)N1C(=O)[C@@]2(c3cc(C#CCNC(N)=O)ccc31)[C@H](C(=O)N1CCCCCCC1)[C@H]1C(=O)O[C@H](c3ccccc3)[C@H](c3ccccc3)N1[C@@H]2c1ccc(OCCO)cc1"
  assigned-label: "not fulfilled"
- molecule: "CCOC(=O)C[C@H]1[C@H](OC(=O)c2cc3ccccc3oc2=O)[C@@H](NC(=O)c2ccc3ccccc3n2)c2cc(OCCCO)ccc2N1C(=O)c1ccc2ccccc2n1"
  assigned-label: "not fulfilled"
- molecule: "O=C1O[C@H](c2ccccc2)[C@H](c2ccccc2)N2[C@H]1[C@@H](C(=O)N1CCCCCCC1)[C@]1(C(=O)Nc3ccccc31)[C@H]2c1ccc(O)cc1"
  assigned-label: "fulfilled"
- molecule: "C=CC[C@]1(C(=O)NCC(O)CO)N=C(c2ccc(OCCCO)cc2)O[C@H]1c1ccccc1N=[N+]=[N-] (some centres not stated)"
  assigned-label: "not fulfilled"
- molecule: "C[N+](C)(C)CCCCCCNC(=O)[C@H]1C[C@H]2C(=O)N3CCC[C@H]3C(=O)N2[C@H]1c1cccc(OCCO)c1"
  assigned-label: "not fulfilled"
- molecule: "O=C1O[C@H](c2ccccc2)[C@H](c2ccccc2)N2[C@H]1[C@@H](C(=O)NC[C@H](O)c1ccccc1)[C@]1(C(=O)Nc3ccccc31)[C@H]2c1ccccc1OCCO"
  assigned-label: "not fulfilled"
- molecule: "COc1ccc([Si](C)(C)[C@@H]2[C@@H](CC(=O)N(CCO)Cc3ccccc3)O[C@]3(C(=O)N(Cc4ccc(N5CCOC5=O)cc4)c4ccccc43)[C@H]2C)cc1"
  assigned-label: "not fulfilled"
- molecule: "O=C1O[C@H](c2ccccc2)[C@H](c2ccccc2)N2[C@H]1[C@@H](C(=O)N1CCN(c3ncccn3)CC1)[C@]1(C(=O)Nc3ccc(C#CCCO)cc31)[C@H]2c1ccc(OCCO)cc1"
  assigned-label: "not fulfilled"
- molecule: "C[C@H]1NC(=O)C([C@@H](C)OCc2ccccc2)NC(=O)[C@@]23C(=O)N[C@@H](Cc4ccccc4)C2[C@H](C)[C@@]2(C)O[C@H]2C3/C=C/CC/C=C/CNC1=O (some centres not stated)"
  assigned-label: "not fulfilled"
- molecule: "O=[N+]([O-])c1ccc(C[n+]2ccc(-c3ccc(CO)cc3)cc2)o1"
  assigned-label: "not fulfilled"
- molecule: "C[N+](C)(C)CCCCNC(=O)[C@H]1C[C@H]2C(=O)NCC(=O)N2[C@H]1c1ccc(O)cc1"
  assigned-label: "not fulfilled"
- molecule: "COC(=O)C(CC#Cc1ccc2c(c1)[C@]1(C(=O)N2)[C@H](c2ccc(O)cc2)N2[C@H](c3ccccc3)[C@H](c3ccccc3)OC(=O)[C@H]2[C@@H]1C(=O)O)C(=O)OC"
  assigned-label: "not fulfilled"
- molecule: "COc1ccc([Si](C)(C)[C@H]2[C@H](CCO)O[C@@]3(C(=O)N(Cc4cccc(N5CCOC5=O)c4)c4ccccc43)[C@@H]2C)cc1"
  assigned-label: "not fulfilled"
- molecule: "NC(=O)NCC#Cc1ccc2c(c1)[C@]1(C(=O)N2)[C@H](c2ccc(OCCO)cc2)N2[C@H](c3ccccc3)[C@H](c3ccccc3)OC(=O)[C@H]2[C@@H]1C(=O)N1CCCCCCC1"
  assigned-label: "fulfilled"
- molecule: "CC1C=C(CCCO)C=C(C(=O)OCCS(C)(=O)=O)C(C(=O)OCCS(C)(=O)=O)=CN1Cc1cccc(OC(F)(F)F)c1 (configuration not stated)"
  assigned-label: "not fulfilled"
- molecule: "CCOC(=O)C1=CCC(c2cccc(Cl)c2)O1 (configuration not stated)"
  assigned-label: "not fulfilled"
- molecule: "C=CCOC(=O)[C@@H]1[C@H]2C(=O)O[C@H](c3ccccc3)[C@H](c3ccccc3)N2[C@H](c2ccc(OCCOC(=O)[C@@H]3C[C@@H]4C(=O)N5CCC[C@H]5C(=O)N4[C@@H]3c3cccc(OCCO)c3)cc2)[C@@]12C(=O)Nc1ccc(I)cc12"
  assigned-label: "not fulfilled"
- molecule: "COc1ccccc1CN1C(=O)c2ccccc2[C@@]2(Cc3ccccc3N(C3CC3)C2=O)[C@@H]1c1ccc(CO)cc1"
  assigned-label: "not fulfilled"
- molecule: "CN(C)C(=O)[C@@]1(Cc2ccccc2N=[N+]=[N-])N=C(c2ccc(OCCCO)cc2)O[C@H]1c1ccccc1N=[N+]=[N-]"
  assigned-label: "fulfilled"

Value source: PubChem BioAssay
